Test system: Bacillus subtilis DB104 (SP-AmyQ fusion secretion)
Test: AmyQ secretion efficiency, weighted average sort bin (1 = best secretion, 10 = worst) (bin number (weighted average, 1-10)); higher = lower secretion efficiency
Reported Metric: AmyQ secretion efficiency

Please look at this sequence and report its AmyQ secretion efficiency: "MKKKQVMLALTAAAGLGLTALHSAPAIKAAPL"
4.18

Would you mind listing AmyQ secretion efficiency for each of the following sequences?
1. MFNRLFRVCFLAALIMAFTLPNSGYAQKP
2. MRKAVLLSLIMLIAGFLISFSFQM
3. MKKAFILSAAAAVGLFTFGGVQQLSAKEL
4. MKIRKILLSSALSFGMLISAVPCLAAGT
5. MKVLLSALLLLLFAFEPSASTKKL
6. MKKRLIGFLVLVPALIMSGITLIEYNKK

2.99
7.21
3.38
2
5.63
9.98

Provide AmyQ secretion efficiency for all items below, preserving their order.
1. MLKKKWMVGLLAGCLAAGEDDEEDAFATEN
2. MFMQIITATTAVVLGSTLFAGAASAQSI
3. MHLIRAAGAVCLAVVLIAGCRFNEDQHQLEGENT

1: 5.44; 2: 3.83; 3: 6.09

Please give AmyQ secretion efficiency for each item listed below.
1. MKVPKTMLLSTAAGLLLSLTATSVSSHYV
2. MKWMCSICCAAVLLAGGACQAEAV
3. MRKWYFILLAGVLTSVILAFVYDKGKANEE
4. MKTLRTKCRKKILSGVIFFGLKIDAKDI
5. MKRLLVSLRVWMVFLMPDRKTAAAAVY
6. MRMLWRSLALCGLALTLAPCAQWAEP
7. MGMKKKLSLGVASAALGLALVGGGSWAAFN
8. MKRTWNGCGQGQLSVLLVAGSVPFHAEAKKP

1. 7.63
2. 3.36
3. 2.67
4. 6.97
5. 6.21
6. 5.9
7. 6.13
8. 2.05

Could you report AmyQ secretion efficiency for every entry in the following list?
1. MRSKKILWISLLFALTLIFTMAFSNMSAQAAGK
2. MKRLLVSLRVWMVFLMNWVTPDRKTAAARRK

[2.64, 7.14]

# batch: return AmyQ secretion efficiency for each of the 5 sequences below
1. MKLKSKLLLSCLALSTVFVATTIANEPTH
2. MKLKKRVSMFLVALTMCGGLFVTPPFVAKAVKT
3. MKKAAAVLLSLGGFSYGAGHVAEAKTK
4. MMKQIITATTAVVLGSTLFAGAASAQSI
5. MRKSLITLGLASVIGTSSFLIPFTSKTLSAETL

7.21
4.47
6.38
2.49
4.7

Parameter requested: AmyQ secretion efficiency. Apply to each item below.
1. MKLAKRVSALTPSTTLAITWKAKEL
2. MAIIIAIIAAVIVIAALITFNVRNSSPG
3. MKLRKSTKYQSYSLGLLVSASPAFATSP

1: 5.85; 2: 8.62; 3: 6.69

###

Test system: Bacillus subtilis DB104 (SP-AmyQ fusion secretion)
Experiment: AmyQ secretion efficiency, weighted average sort bin (1 = best secretion, 10 = worst) (bin number (weighted average, 1-10)); higher = lower secretion efficiency
Assign class by AmyQ secretion efficiency: not lower than 7 means Satisfied; lower than 7 means Not satisfied.

Worked examples follow.
Hello, I need to know if "MKKRLIAPMLLSAASLAFFAMSGSAQQAAY" has measured AmyQ secretion efficiency not below 7. Thanks!
Satisfied

Is AmyQ secretion efficiency at least 7? Consider "MMIKQCVICLSLLVFGTTAAHARKR"
Not satisfied

More entries:
Exam item: decide whether the reported AmyQ secretion efficiency for "MPYLKRVLLLLVTGLFMSLAVTATASAQTG" is at least 7.
Not satisfied

# check: AmyQ secretion efficiency of "MRSKKLWISLLFALTLIFTMAFSNMSAQHAGK" is greater than or equal to 7
Not satisfied

Check the entry "MPYLKRVLLLLVTGLFMSLFAVTATASAQTD" : does AmyQ secretion efficiency equal or exceed 7?
Not satisfied

###

System: Bacillus subtilis DB104 (SP-AmyQ fusion secretion)
Experiment: AmyQ secretion efficiency, weighted average sort bin (1 = best secretion, 10 = worst) (bin number (weighted average, 1-10)); higher = lower secretion efficiency
If the reported AmyQ secretion efficiency equals or exceeds 5, assign y. If not, assign n.

Example entries and their recorded answers appear below.
Record "MKKKRKRLAAGLTASAIVGTTLVVTPAEAATI" ; criterion: AmyQ secretion efficiency no lower than 5. Met?
n

AmyQ secretion efficiency >= 5 for "MKKAAAVLLSLGLVFGFSYGAGHVAESKTK" ?
n

For this sequence, is measured AmyQ secretion efficiency 5 or higher? "MKLKKRVSMFLVALLMCLLLFVSTPAKAVKT"
n

Form field: AmyQ secretion efficiency at least 5? Entry: "MHLIRAAGAVCLAVVLIAGCRFGSIIVSAEGENT"
y

Check the entry "MMKKLFHSTLIVLLFFSFFGVQIHAKKQ" : does AmyQ secretion efficiency equal or exceed 5?
n

***
# check: AmyQ secretion efficiency of "MTMLRKIRKWILLLCIIPLFAFTVIASGKEV" is greater than or equal to 5
y

Please check the record "MRKKRVITCVMAASLTLGSLLPAGYASGKED" and state if its AmyQ secretion efficiency is at or above 5.
n

I'd appreciate it if you could say whether "MTGGVILAAFILVGSTLGAFSFSSDASAKHV" has AmyQ secretion efficiency at least equal to 5.
n

###

Tested on: Bacillus subtilis DB104 (SP-AmyQ fusion secretion)
Test: AmyQ secretion efficiency, weighted average sort bin (1 = best secretion, 10 = worst) (bin number (weighted average, 1-10)); higher = lower secretion efficiency
So I've got a bunch of sequences here, and I need their AmyQ secretion efficiency values.
One number for each entry.

For the 8 sequences below, give their AmyQ secretion efficiency values.
1. MLCVMMLLFSAIASFPVSEQAKDQ
2. MLTKRLLTIYIMLLGLIKKKRKKAQAEEK
3. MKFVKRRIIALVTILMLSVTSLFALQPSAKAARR
4. MMIKQCKKCLSLLVFGTTAAHAEET
5. MNKLKRLSMLTVMIASVFIFSASFFTSHALAAQY
6. MKKTTNVLMAFIICLSLILSVLAAPPSGAKAESV
7. MNLRKILLSSALSLGMLVSAAPWLATSS
8. MFNRLFRVCFLAALIMAFTLPNSVYVQKP

[4.62, 7.57, 1.74, 7.22, 2.06, 2.36, 6.1, 6.52]

Give one value of AmyQ secretion efficiency per listed sequence.
1. MLKKIALTLCPAIVGSLLFFTAPASPHVS
2. MSVCQKSIVRFLVSLIIGTFVISVPFMANAQSD
3. MKKRLIAPMLLSAASLAFFAMFIIGSTAQAAAY

[8.85, 1.68, 4.67]

Provide AmyQ secretion efficiency for all items below, preserving their order.
1. MKRIRIPMTLALGAALTIAPLSFASMEEN
2. MMSLLVSLRVWMVFLMNWVTPDRKTAAAAVY

1. 6.12
2. 5.61

###

Tested on: Bacillus subtilis DB104 (SP-AmyQ fusion secretion)
Assay: AmyQ secretion efficiency, weighted average sort bin (1 = best secretion, 10 = worst) (bin number (weighted average, 1-10)); higher = lower secretion efficiency
Reported Metric: AmyQ secretion efficiency
Give bare numbers.

Lab note: each sequence below needs its AmyQ secretion efficiency filled in.
1. MKKWIYVVLVLSIAGIGGFSVHKASS
2. MGMKKKLSLGVASAALGLALVGRRKRKKTWAAFN
3. MKKKQVSHAIIISVMLSFVIAVFHTIHASYLTP
4. MKKFLVSLIIGTFVISVPFMANAQSD
5. MNKKYFVLIVCIIFTSALFPTFSSVTHAQG
6. MKSKGSIMACLILFSFTITTFINTETMSAFSN
7. MPYLKRVLLLLVTGLFMSLFAVTATYSAQTG
8. MFRKLLSSLAISALSLGLLVSAPTASFAAES

1. 4.97
2. 6.59
3. 6.98
4. 1.69
5. 1.15
6. 5.38
7. 3.91
8. 5.47

Your task in this section: give AmyQ secretion efficiency for each listed record.
1. MKKVLMAFIICLSLILSVLAAPPSGAKPESV
2. MMKKLFHSTLIVLLFFSFFGVQPLHAKKQ
3. MKLRKVLTGSVLSLGLLDDEEDDAFATSP
4. MKWMCSICCAAVLLAGGAAQLEAV
5. MKSKGSIMACLILFSFTITTFINTETISAFRR
6. MNLRKILLSSALSLGMLVSAAPVLMTSS
7. MKKKQVMLKRTAAAGLGLTALHSAPAAKAAPL
8. MRKTIFAFLTGLMMFGTITAMSASPD

1. 4.65
2. 2.57
3. 7.86
4. 3.67
5. 6.09
6. 4.51
7. 6.55
8. 5.39

Fill in AmyQ secretion efficiency for each of the 6 sequences listed.
1. MRIFKKAVFVIMISFLIATVNVNTAHIAID
2. MRSYIKVLTMCFLGLILFVPTALVDNS
3. MRKKLKWLSFLLGFIILLFLFTLTILKYQFSNNDS
4. MKKQIITATTAVVLGSTLFAGAGSAQSI
5. MKRQSQTLSFLSIIVAYPIQTNASPM
6. MKKVLMAFIICLSLILSVLAAPPSGAKGESV

1. 6.89
2. 5.38
3. 7.28
4. 1.62
5. 8.43
6. 2.46
